Catalogue of TGI values
Tested on: COLO 205 colon
measurementDescription: NCI tumour cell line growth inhibition, 48 h

Recorded results for 8 compounds are shown here.
compound	resultValue
CC1(C)NCCC[C@]2(C)[C@H]3CC[C@@H]4[C@H]5[C@H](C(=O)/C=C/c6ccccn6)CC[C@]5(CO)CC[C@@]4(C)[C@]3(C)CC[C@@H]12	4.28 µM
CC1(N)CCN(c2cnc(-c3cccc(Cl)c3Cl)c(N)n2)CC1	35.5 µM
O=C1NNC2NC(=O)C3(NN2C1=O)c1ccccc1-c1ccccc13 (stereo not drawn)	> 100 µM
O=C1c2ccccc2C(=O)c2c(Nc3cc4c5c(ccc6c7ccc8c9c(cc(Nc%10cccc%11c%10C(=O)c%10ccccc%10C%11=O)c(c3c56)c97)-c3ccccc3C8=O)C(=O)c3ccccc3-4)cccc21	> 100 µM
COc1ccc(C2=C(N)c3ncccc3C2=O)cc1	> 100 µM
CCN(CC)Cc1ccc(C(=S)Nc2ccc(C)cc2)s1	31.7 µM
CO/N=C(\COc1ccc2oc(-c3ccccc3)cc(=O)c2c1)c1ccc(OC)cc1	> 100 µM
COc1ccc2c3c(c(C(=O)c4ccccc4)oc13)CCC2	> 100 µM

TGI reading for Cc1nc2[nH]ncn2c(=O)c1CCCl : > 10 µM

TGI reading for CCN(CC)c1ccc(/C=C/C(=O)c2cc(C(C)(C)C)c(O)c(C(C)(C)C)c2)cc1 : 14.7 µM

TGI reading for C/C(=C\c1cc(C(F)(F)F)n(-c2ccc(N)cc2)n1)[C@@H]1C[C@@H]2O[C@]2(C)CCC[C@H](C)[C@H](O)[C@@H](C)C(=O)C(C)(C)[C@@H](O)CC(=O)O1 : 0.582 µM

TGI reading for C=C1C(=O)O[C@H]2[C@H]1CC/C(COC(=O)C(C)c1ccc(CC(C)C)cc1)=C\CC[C@@]1(C)O[C@@H]21 (stereo partly drawn) : 4.1 µM

TGI reading for O=C(/C=C/C12c3ccccc3C(c3ccccc31)C1C(=O)NC(=O)C12)c1ccc(F)cc1 (stereo not drawn) : 4.27 µM

TGI reading for COC(=O)C(COC(=O)/C=C/c1ccc(OC(C)=O)c(OC(C)=O)c1)NC(=O)/C=C/c1ccc(OC(C)=O)c(OC(C)=O)c1 (stereo not drawn) : 43.4 µM

TGI reading for CCOc1ccccc1-c1nc2c(s1)C(=O)c1ccccc1C2=O : 58.9 µM

TGI reading for Nc1n[n+](-c2ccccc2)no1 : > 100 µM

TGI reading for O=C(NNC(=S)NCc1ccccc1)c1csc(NC(=S)NC2CCCCC2)n1 : 49.6 µM

TGI reading for CN(C)c1nncc2n[nH]nc12 : > 100 µM

TGI reading for Nc1ccc(-c2cccs2)cc1NC(=O)c1ccc(CCCC(=O)Nc2ccc(C3CC3N)cc2)cc1 (stereo not drawn) : > 100 µM

TGI reading for COC(=O)C(Br)C1CCc2ccccc21 (stereo not drawn) : > 100 µM

TGI reading for CCN(CC)C(=S)SCN1C(=O)c2ccccc2S1(=O)=O : > 100 µM

TGI reading for NS(=O)(=O)c1ccc(N(/C=C/C(=O)C(F)(F)F)Cc2ccc(Cl)cc2)cc1 : > 100 µM

TGI reading for Oc1cc(N2CCCC2)ccc1/C=N/N1C(=S)N(c2ccccc2)C(=Nc2ccccc2)C1=Nc1ccccc1 : > 100 µM
